- TESTED ON: T1, SARS-CoV-2 S1 protein (SARS-CoV-2, UniProt P0DTC2 16-685)
- T1 construct: also called SARS-CoV-2 Spike Glycoprotein S1; S1 (subunit 1)
- PROTOCOL TEXT: ELISA binding titration on coated antigen
pEC50: −log10 of the molar value.
ENDPOINT: pEC50

2-8 (antibody, V domains shown, also called variant 2-8) VH: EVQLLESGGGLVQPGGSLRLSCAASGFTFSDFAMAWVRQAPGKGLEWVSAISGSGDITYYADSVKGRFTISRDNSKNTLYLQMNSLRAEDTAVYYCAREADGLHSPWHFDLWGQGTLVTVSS VL: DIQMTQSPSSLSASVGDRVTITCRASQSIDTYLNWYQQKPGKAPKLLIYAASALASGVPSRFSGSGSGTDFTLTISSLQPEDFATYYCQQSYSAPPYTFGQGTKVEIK; 10.10
2-17 (antibody, V domains shown, also called variant 2-17) VH: EVQLLESGGGLVQPGGSLRLSCAASGFTFSNYAMSWVRQAPGKGLEWVSAISGSAGSTYYADSVKGRFTISRDNSKNTLYLQMNSLRAEDTAVYYCARVRQGLRRTWYYFDYWGQGTLVTVSS VL: DIQMTQSPSSLSASVGDRVTITCTGTSSDVGSSNLVSWYQQKPGKAPKLLIYEGSKRPSGVPSRFSGSGSGTDFTLTISSLQPEDFATYYCCSYAGSLYVFGQGTKVEIK; 7.00
2-5 (antibody, V domains shown, also called variant 2-5) VH: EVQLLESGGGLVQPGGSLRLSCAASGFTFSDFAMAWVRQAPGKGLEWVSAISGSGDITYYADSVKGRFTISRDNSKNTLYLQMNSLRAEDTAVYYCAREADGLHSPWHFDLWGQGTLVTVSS VL: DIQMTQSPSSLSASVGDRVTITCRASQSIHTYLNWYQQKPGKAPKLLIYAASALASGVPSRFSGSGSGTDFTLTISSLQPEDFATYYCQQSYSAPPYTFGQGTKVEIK; 9.88
2-2 (antibody, V domains shown, also called variant 2-2) VH: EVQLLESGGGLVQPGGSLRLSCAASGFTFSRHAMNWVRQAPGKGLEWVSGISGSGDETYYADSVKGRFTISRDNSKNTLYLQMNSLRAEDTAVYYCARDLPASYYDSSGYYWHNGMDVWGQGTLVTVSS VL: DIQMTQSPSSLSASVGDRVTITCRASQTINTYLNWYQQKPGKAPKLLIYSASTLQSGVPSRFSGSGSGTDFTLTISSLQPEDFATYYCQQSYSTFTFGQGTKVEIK; 9.21
2-2 (second entry, printed after 2-19) (antibody, V domains shown) VH: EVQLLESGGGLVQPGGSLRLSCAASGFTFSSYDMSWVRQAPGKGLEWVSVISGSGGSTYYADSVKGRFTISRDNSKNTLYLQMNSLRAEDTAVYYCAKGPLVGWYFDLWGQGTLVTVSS VL: DIQMTQSPSSLSASVGDRVTITCTGTSSNVGSYNLVSWYQQKPGKAPKLLIYEGTKRPSGVPSRFSGSGSGTDFTLTISSLQPEDFATYYCCSYAGSSSFVVFGQGTKVEIK; 7.00
